Data credit: patent US20200347144A1

# Assay Target: T1, hFc-tagged human 4-1BB extracellular domain protein (4-1BB-hFc) (human, UniProt Q07011 24-186, limits assumed)
# T1 construct: also called immunogen A; 4-1BB^ECD-hFc; not shown: human IgG Fc fragment (hFc) of the pCpC vector
# Test Summary: ELISA, coated human 4-1BB-hFc; Ab 0.4 ug/ml
# From the text: […]
Reported Metric: OD450 nm (OD450 nm)
Express your answer in OD450 nm, writing the number without its unit.

Measured OD450 nm of 15G10D4 (antibody, V domains shown) VH: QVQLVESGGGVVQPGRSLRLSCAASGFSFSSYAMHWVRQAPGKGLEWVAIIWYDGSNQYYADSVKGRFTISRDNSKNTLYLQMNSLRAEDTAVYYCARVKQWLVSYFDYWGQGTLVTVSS VL: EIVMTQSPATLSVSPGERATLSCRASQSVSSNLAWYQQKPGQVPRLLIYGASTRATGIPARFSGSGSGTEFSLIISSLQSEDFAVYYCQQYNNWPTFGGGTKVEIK : 3.55

Measured OD450 nm of 119B6G5 (antibody, V domains shown) VH: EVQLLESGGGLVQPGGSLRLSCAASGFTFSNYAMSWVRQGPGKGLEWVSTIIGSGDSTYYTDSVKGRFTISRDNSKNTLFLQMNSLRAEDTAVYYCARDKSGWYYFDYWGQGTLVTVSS VL: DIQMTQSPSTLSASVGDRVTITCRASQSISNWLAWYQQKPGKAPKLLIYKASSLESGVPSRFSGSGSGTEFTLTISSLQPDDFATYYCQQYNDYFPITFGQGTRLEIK : 2.77

Measured OD450 nm of 11H10C9 (antibody, V domains shown) VH: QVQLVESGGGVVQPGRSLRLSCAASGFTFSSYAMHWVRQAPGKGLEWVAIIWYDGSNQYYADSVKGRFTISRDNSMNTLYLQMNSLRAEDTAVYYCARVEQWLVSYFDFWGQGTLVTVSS VL: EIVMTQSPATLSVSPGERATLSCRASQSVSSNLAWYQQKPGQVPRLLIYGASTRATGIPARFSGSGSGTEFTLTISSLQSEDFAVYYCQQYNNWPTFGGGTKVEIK : 3.58

Measured OD450 nm of 118F3A2 (antibody, V domains shown) VH: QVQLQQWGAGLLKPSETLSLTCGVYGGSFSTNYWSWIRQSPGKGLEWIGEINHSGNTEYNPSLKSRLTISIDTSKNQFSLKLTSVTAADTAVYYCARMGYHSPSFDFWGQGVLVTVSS VL: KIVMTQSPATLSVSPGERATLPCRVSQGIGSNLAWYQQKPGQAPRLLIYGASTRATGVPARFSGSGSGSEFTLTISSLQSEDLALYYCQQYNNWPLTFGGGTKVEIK : 2.73
